{"compound": "CCn1cc(C(c2ccc(Cl)cc2Cl)n2cncn2)c2cc(Br)ccc21 (stereo unspecified)", "melting point": "124 to 126 °C"}
{"compound": "CC(=O)OC1CSC(Oc2c(C#N)ccnc2C)C(OC(C)=O)C1OC(C)=O (stereo unspecified)", "melting point": "109 to 113 °C"}
{"compound": "COc1ccccc1C(=C/C=C/C(=O)Oc1ccc([N+](=O)[O-])cc1)c1ccccc1OC", "melting point": "142 to 143 °C"}
{"compound": "CCCN(CCCC(=O)Nc1c(C(C)C)nc(C)nc1N(CC)CC)c1ccccc1", "melting point": "129 to 131 °C"}
{"compound": "CNC(=O)C(=NOC)c1ccccc1COc1ncc(C)cc1C(=O)OC(C)C", "melting point": "165 to 166 °C"}
{"compound": "O=C(NC1CCCCC1)c1ccc(CCN2CC=C(c3c[nH]c(-c4ccc(F)cc4)c3-c3ccncc3)CC2)cc1", "melting point": "243 to 245 °C"}
{"compound": "Cc1cc(C)c(C(=NO)C(F)(F)F)c(C)c1", "melting point": "119 to 125 °C"}
{"compound": "Cc1nn(-c2cccnc2)c(-c2cccc(Cl)c2)c1CC(=O)O", "melting point": "163 °C"}
{"compound": "CN1CCN(c2ccc3c(=O)n4c(nc3c2)C(=O)c2cc(F)ccc2-4)CC1", "melting point": "242 to 244 °C"}
{"compound": "CSC1=NS(=O)(=O)CCCS1", "melting point": "91 °C"}
{"compound": "CCc1nc2c(Br)cccc2cc1C", "melting point": "54 °C"}
{"compound": "COCCOC(=O)C1=C(C)Nc2nc(N3CCOCC3)nc(N3CCOCC3)c2C1c1cccc([N+](=O)[O-])c1 (stereo unspecified)", "melting point": "172 °C"}
{"compound": "CC(=O)Nc1ccc(C2CN(C)Cc3c(Cl)cc(Cl)cc32)cc1 (stereo unspecified)", "melting point": "205 to 206 °C"}
{"compound": "COc1ccc2c(c1)CCC1C2CCC2(C)C1CCC2N(C=O)CCN(C)C (stereo unspecified)", "melting point": "98 to 100 °C"}
{"compound": "CC1(O)CC=C2C3CCC4=CC(=O)CCC4C3C(c3ccc(-c4ccoc4)cc3)CC21C (stereo unspecified)", "melting point": "198 to 199 °C"}
{"compound": "COc1cccc(C2(CC(=O)O)C(=O)Nc3ccc(Cl)cc32)c1OC (stereo unspecified)", "melting point": "235 °C"}
{"compound": "CCOc1ccc(-c2ccc(-c3ccc(C4CCC(c5c(F)cccc5F)=N4)cc3)cc2)s1 (stereo unspecified)", "melting point": "128 to 134 °C"}
{"compound": "Cc1ncsc1C(C)(O)c1ccsc1 (stereo unspecified)", "melting point": "149 to 151 °C"}
{"compound": "CN(C)C(=O)Cn1c(-c2cccc(C(F)(F)F)c2)nc2cccnc21", "melting point": "136 to 138 °C"}
{"compound": "O=C(O)COc1cc2cc(CO)sc2c(Cl)c1Cl", "melting point": "188 °C"}
{"compound": "CCCCc1cc(N)n2nccc2n1", "melting point": "124 to 126 °C"}
